biological target: Hsc70 SBD construct (residues 395-509) (human, UniProt P11142 395-509); assay: fluorescence polarisation
Sequence (P11142 395-509): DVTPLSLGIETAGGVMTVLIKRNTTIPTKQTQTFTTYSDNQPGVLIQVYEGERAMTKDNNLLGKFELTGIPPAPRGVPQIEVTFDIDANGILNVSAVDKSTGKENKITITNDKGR
Ahx = NCCCCCC(=O)O
Readout Label: pKd
// pKd is dimensionless: -log10 of concentration (M)

Check the records and state pKd for {FAM-Ahx}-LPISTGGFQMALTPVV-OH [FAM-Ahx-LPISTGGFQMALTPVV-OH]
7.54

Recorded values, source paper PMC13262181.
